# targetUnderTest: human serum-derived IgA polyclonal antibody (#I4036; Sigma-Aldrich) (human)
# testDescription: ELISA
metric: OD
Could you keep your reply to the number by itself?

Consider the reported OD for these binders:
IgA R3-1 (scFv, not shown: small tags and cut ends) scFv: QSVKESGGRLVTPGTPLTLTCTVSGIDLSSNAMSWVRQAPGEGLEWIGTISTVGKTYFASWAKGRFTISKTSTTVDLRITSPTTEDTATYFCATRYDSYGYAYNYWFGTLWGPGTLVTVTSGGGGSGGGGSGGGGSELDLTQTPPSVSGAVGGTVTIKCQASENINSELAWYQQKPGQRPKLLIYDASKLASGVPSRFSGSGSGTEYTLTISGMQCDDAATYYCQSTYYDGNYVYAFGGGTEVDVTRS :: 3
IgA R3-18 (scFv, not shown: small tags and cut ends) scFv: QSLEESGGRLVTPGTPLTLTCTVSGIDLSSNAMTWVRQAPGEGLEWIGTISTGGSTYFASWAKGRFTISKTSTTVDLKITSPTTEDTATYFCATRYDSYGYAYNYWFGTLWGPGTLVTVTSGGGGSGGGGSGGGGSELVMTQTAASVSEPVGGTVTIKCQASQNINNELAWYQQKPGQRPKLLIYDASKLASGVPSRFSGSGSGTEFTLTISGMQCDDAATYYCQSTYYDGNYVYAFGGGTEVDVKGS :: 3.03
R2-18 (scFv, not shown: small tags and cut ends) scFv: QSLEESGGRLVTPGTPLTLTCTVSGIDLSSNAMTWVRQAPGEGLEWIGTISTGGSTYFASWAKGRFTISKTSTTVDLKITSPTTEDTATYFCATRYDSYGYAYNYWFGTLWGPGTLVTVTSGGGGSGGGGSGGGGSELVMTQTAASVSEPVGGTVTIKCQASQNINNELAWYQQKPGQRPKLLIYDASKLASGVPSRFSGSGSGTEFTLTISGMQCDDAATYYCQSTYYDGNYVYAFGGGTEVDVKGS :: 3.11

Then there is this binder:
Recorded OD of R3-8 (scFv, not shown: small tags and cut ends) scFv: QSLEESGGRLVTPGTPLTLTCTVSGIDLSSNAMTWVRQAPGEGLEWIGTISTGGSTYFASWAKGRFTISKTSTTVDLKITSPTTEDTATYFCATRYDSYGYAYNYWFGTLWGPGTLVTVTSGGGGSGGGGSGGGGSELVMTQTAASVSEPVGGTVTINCQASQSISDELAWYQQKPGQRPKLLIYDASDLASGVPSRFSGSGSGTEFTLTISGVQCDDAATYYCQSAYYDGRYVYAFGGGTEVEVTGS , please. 3.06
